Taken from patent US10099993B2.

assay: In vivo PK in rats, p.o. administration
Design: species or system rat
details: rat, plasma, po, 20 mg/kg
Below: a set of entries, each annotated with reported Tmax.
Give just the number in h; leave the unit off.

In [3]: df
Out[3]:
                                givensmiles  uom  reportedmeasurement
0  COc1ccc(C(=O)O)cc1OCCCCOc1ccc(C(=O)CC(C)C)c(O)c1C    h                  1.6
1  COc1cc(C(=O)O)ccc1OCCCCOc1ccc(C(=O)CC(C)C)c(O)c1C    h                  1.5
2  Cc1c(OCCCCOc2ccc(C(=O)O)cc2)ccc(C(=O)CC(C)C)c1O    h                 2.25

Kindly review the next molecule as well.
Task: Please look up its Tmax: Cc1c(OCCCCOc2ccc(F)c(C(=O)O)c2)ccc(C(=O)CC(C)C)c1O
Result: 0.5

* * *

targetOfAssay: mGlu3 (Rattus norvegicus (Rat))
Sequence (P31422 23-879): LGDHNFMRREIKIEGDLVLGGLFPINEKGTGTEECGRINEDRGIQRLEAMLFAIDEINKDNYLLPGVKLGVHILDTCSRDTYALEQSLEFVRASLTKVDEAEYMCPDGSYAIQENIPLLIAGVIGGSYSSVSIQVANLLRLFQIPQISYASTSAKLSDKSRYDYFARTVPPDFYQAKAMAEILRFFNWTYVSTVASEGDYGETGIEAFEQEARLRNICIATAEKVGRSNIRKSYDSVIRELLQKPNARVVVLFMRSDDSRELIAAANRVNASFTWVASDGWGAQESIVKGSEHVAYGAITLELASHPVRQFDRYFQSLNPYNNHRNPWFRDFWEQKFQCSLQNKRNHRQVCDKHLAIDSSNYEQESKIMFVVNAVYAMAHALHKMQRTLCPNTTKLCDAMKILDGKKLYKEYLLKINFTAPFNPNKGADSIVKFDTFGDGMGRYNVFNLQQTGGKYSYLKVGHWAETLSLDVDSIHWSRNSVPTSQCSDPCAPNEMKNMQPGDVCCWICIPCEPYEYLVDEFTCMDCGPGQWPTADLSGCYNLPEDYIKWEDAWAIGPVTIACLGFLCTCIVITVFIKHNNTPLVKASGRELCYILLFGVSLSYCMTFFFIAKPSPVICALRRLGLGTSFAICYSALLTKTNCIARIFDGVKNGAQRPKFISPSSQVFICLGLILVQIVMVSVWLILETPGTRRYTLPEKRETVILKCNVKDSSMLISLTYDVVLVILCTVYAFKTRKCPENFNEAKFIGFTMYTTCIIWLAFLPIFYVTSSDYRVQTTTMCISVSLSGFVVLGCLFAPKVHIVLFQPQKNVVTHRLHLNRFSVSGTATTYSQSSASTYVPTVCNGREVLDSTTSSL
assay: mGlu3 GIRK thallium flux assay
details: read-out: mGlu3 PAM Max
propertyName: Emax (%)
Give just the number in %; leave the unit off.

The following compounds have reported results that may help.
                                givensmiles  reportedmeasurement
0  Cc1c(OCCCCOc2ccc3c(c2)B(O)OC3)ccc(C(=O)CC(C)(C)C)c1O                   94
1  Cc1c(OCc2cccc(-c3ccccc3C(=O)O)c2)ccc(C(=O)CC(C)(C)C)c1O                 23.5
2  Cc1c(OCc2cccc(-c3ccc(C(=O)O)c(Cl)c3)c2)ccc(C(=O)CC(C)(C)C)c1O                 54.9

Kindly review the next compound as well.
Task: Lab request: please report Emax under test system mGlu3 (Rattus norvegicus (Rat)) for COc1ccc(C(=O)O)cc1OCCCCOc1ccc(C(=O)CCC(C)(C)C)c(O)c1C
Result: 95.3

* * *

targetOfAssay: mGlu2 (Rattus norvegicus (Rat))
assay: mGlu2 GIRK thallium flux assay
details: read-out: mGlu2 PAM EC50; PAM mode; test compound, then EC20 glutamate […] later in the presence of thallium; mean ± SEM, at least three experiments
Below: a set of entries, each annotated with reported EC50.
Give just the number in nM; leave the unit off.

>>> print(df.to_string())
                                givensmiles  uom  reportedmeasurement
0  Cc1c(OCc2cccc(-c3cccc(C(=O)O)c3)c2)ccc(C(=O)CCC(C)(C)C)c1O   nM                 2110

Kindly review the next compound as well.
Task: Lab request: please report EC50 under test system mGlu2 (Rattus norvegicus (Rat)) for Cc1c(OCc2cncc(-c3cccc(C(=O)O)c3)c2)ccc(C(=O)CC(C)(C)C)c1O
Result: 345

* * *

Below: a set of entries, each annotated with reported pEC50.
targetOfAssay: UniProtKB P31421
assay: mGlu2 GIRK thallium flux assay
details: read-out: mGlu2 PAM EC50; PAM mode; test compound, then EC20 glutamate […] later in the presence of thallium; mean ± SEM, at least three experiments
For clarity, pEC50 is expressed as the negative log10 of concentration in mol/L.

The following compounds have reported results that may help.
In [3]: df
Out[3]:
                                   compound     targetofassay  propertyname  reportedmeasurement
0  COc1ccc(-c2noc(=O)[nH]2)cc1OCCCCOc1ccc(C(=O)CC(C)(C)C)c(O)c1C  UniProtKB P31421         pEC50                 6.17
1  Cc1c(OCc2cccc(-c3ccc(Cl)c(C(=O)O)c3)c2)ccc(C(=O)CC(C)C)c1O [compound 169]  UniProtKB P31421         pEC50                 6.56
2  Cc1c(OCc2cccc(-c3cnc(C(=O)O)cn3)c2)ccc(C(=O)CC(C)(C)C)c1O  UniProtKB P31421         pEC50                 5.67
3  Cc1c(OCc2cccc(-c3ccc(Cl)c(C(=O)O)c3)c2)ccc(C(=O)CC(C)C)c1O [compound 172]  UniProtKB P31421         pEC50                 6.12

Kindly review the next compound as well.
Task: Please look up its pEC50: Cc1cc(-c2cccc(COc3ccc(C(=O)CC(C)(C)C)c(O)c3C)c2)ccc1C(=O)O
Result: 6.24

* * *

targetOfAssay: UniProtKB P31422
assay: mGlu3 GIRK thallium flux assay;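 note: kinetic fluorescence slope read shortly after thallium plus agonist addition, scaled between vehicle and maximal agonist control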
details: read-out: mGlu3 PAM Max
Below: a set of entries, each annotated with reported Emax.
Give just the number in %; leave the unit off.

The following compounds have reported results that may help.
>>> df
                                   compound  propertyname  reportedmeasurement
0  Cc1c(OCc2cccc(-c3cnc(C(=O)O)cn3)c2)ccc(C(=O)CC(C)(C)C)c1O [Compound 181]          Emax                  106
1  COc1ccc(C(=O)O)cc1-c1cccc(COc2ccc(C(=O)CC(C)(C)C)c(O)c2C)c1 [compound 134]          Emax                 76.4

Task: Please look up its Emax: CONC(=O)c1ccc(OC)c(OCCCCOc2ccc(C(=O)CC(C)(C)C)c(O)c2C)c1 [compound 90]
Result: 78.7

Task: What do we get for Cc1c(OCc2cccc(-c3cccc(C#N)c3)c2)ccc(C(=O)CC(C)(C)C)c1O [compound 151] ?
Result: 35.5

* * *

Below: a set of entries, each annotated with reported pEC50.
targetOfAssay: mGlu2 (Rattus norvegicus (Rat), UniProt P31421)
Sequence (P31421 19-872): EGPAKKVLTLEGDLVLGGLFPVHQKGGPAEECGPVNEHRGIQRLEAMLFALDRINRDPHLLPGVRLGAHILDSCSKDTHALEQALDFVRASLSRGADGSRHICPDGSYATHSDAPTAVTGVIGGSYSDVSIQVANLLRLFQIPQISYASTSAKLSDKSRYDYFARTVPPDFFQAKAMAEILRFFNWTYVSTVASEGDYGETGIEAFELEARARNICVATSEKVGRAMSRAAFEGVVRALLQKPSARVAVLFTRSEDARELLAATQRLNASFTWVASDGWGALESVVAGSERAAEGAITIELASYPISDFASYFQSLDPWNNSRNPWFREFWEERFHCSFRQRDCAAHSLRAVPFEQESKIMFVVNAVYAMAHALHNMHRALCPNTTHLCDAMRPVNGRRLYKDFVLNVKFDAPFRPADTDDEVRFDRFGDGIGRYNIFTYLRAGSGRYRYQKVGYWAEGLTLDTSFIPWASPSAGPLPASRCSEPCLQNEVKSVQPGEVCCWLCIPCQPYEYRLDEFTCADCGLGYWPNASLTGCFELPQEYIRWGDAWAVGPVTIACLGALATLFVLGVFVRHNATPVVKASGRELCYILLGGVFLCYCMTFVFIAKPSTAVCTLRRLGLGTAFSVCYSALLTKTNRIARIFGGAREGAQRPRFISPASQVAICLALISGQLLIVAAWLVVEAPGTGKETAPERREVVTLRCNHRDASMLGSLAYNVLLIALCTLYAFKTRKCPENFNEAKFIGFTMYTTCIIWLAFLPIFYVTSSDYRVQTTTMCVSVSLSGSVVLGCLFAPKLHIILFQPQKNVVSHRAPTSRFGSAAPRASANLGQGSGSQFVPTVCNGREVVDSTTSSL
assay: mGlu2 GIRK thallium flux assay
details: read-out: mGlu2 PAM EC50; PAM mode; test compound, then EC20 glutamate […] later in the presence of thallium; mean ± SEM, at least three experiments
For clarity, pEC50 is expressed as the negative log10 of concentration in mol/L.

Task: Please look up its pEC50: COc1ccc(C(=O)NS(C)(=O)=O)cc1OCCCCOc1ccc(C(=O)CC(C)(C)C)c(O)c1C [compound 93]
Result: 6.60

Task: What do we get for COc1ccc(B(O)O)cc1OCCCCOc1ccc(C(=O)CC(C)(C)C)c(O)c1C [compound 95] ?
Result: 5.52

Task: What do we get for Cc1c(OCc2cccc(-c3cccc(C(=O)O)c3)c2)ccc(C(=O)CC2CCCC2)c1O [compound 129] ?
Result: 6.21

Task: What do we get for Cc1c(OCc2cnc(-c3cccc(C(=O)O)c3)cn2)ccc(C(=O)CC(C)(C)C)c1O [compound 163] ?
Result: 5.84

Task: What do we get for Cc1c(OCc2cccc(-c3cc(C(=O)O)ccc3F)c2)ccc(C(=O)CC(C)(C)C)c1O [compound 139] ?
Result: 6.36

Task: What do we get for Cc1c(OCc2cccc(-c3cccc(CC(=O)O)c3)c2)ccc(C(=O)CC(C)(C)C)c1O [compound 145] ?
Result: 5.87

Task: What do we get for COc1ccc(C(=O)NS(=O)(=O)c2ccccc2)cc1OCCCCOc1ccc(C(=O)CC(C)(C)C)c(O)c1C [compound 113] ?
Result: 6.06

* * *

targetOfAssay: UniProt P31421
assay: mGlu2 GIRK thallium flux assay
details: read-out: mGlu2 PAM EC50; PAM mode; test compound, then EC20 glutamate […] later in the presence of thallium; mean ± SEM, at least three experiments
Below: a set of entries, each annotated with reported EC50.

The following compounds have reported results that may help.
>>> print(df.to_string())
                                   compound   targetofassay  reportedmeasurement
0  Cc1c(OCCCCSc2ccccn2)ccc(C(=O)CC(C)C)c1O [Compound 184]  UniProt P31421           > 10000 nM
1  COC(=O)c1ccc(OCCCCOc2ccc(C(=O)CC(C)C)c(O)c2C)cc1 [Compound 16]  UniProt P31421           > 30000 nM
2  Cc1c(OCc2cccc(COc3ccc(C(=O)O)cc3)c2)ccc(C(=O)CC2CCCC2)c1O [compound 126]  UniProt P31421           > 10000 nM
3  Cc1c(OCc2cccc(-c3cnccc3C(=O)O)c2)ccc(C(=O)CC(C)(C)C)c1O [Compound 180]  UniProt P31421              1460 nM
4  Cc1c(OCc2ccnc(-c3cccc(C(=O)O)c3)c2)ccc(C(=O)CC(C)(C)C)c1O [compound 149]  UniProt P31421               230 nM

Task: Please look up its EC50: Cc1c(OCc2cccc(-c3cc(F)cc(C(=O)O)c3)c2)ccc(C(=O)CC(C)(C)C)c1O [compound 136]
Result: 308 nM

Task: What do we get for Cc1c(OCc2cccc(-c3ccc(Cl)c(C(=O)O)c3)c2)ccc(C(=O)CC(C)(C)C)c1O [compound 133] ?
Result: 433 nM

Task: What do we get for Cc1c(OCCCCOc2ccccn2)ccc(C(=O)CC2CCCC2)c1C [Compound 194] ?
Result: > 10000 nM
